Hello, the source for this data is patent US11999727B2, in case you need it.

Listing of entries alongside the reported pIC50.
- experimental target: PRMT5 (Homo sapiens, UniProt O14744)
- Construct: purchased Viva (custom protein)
- Sequence (O14744 whole entry): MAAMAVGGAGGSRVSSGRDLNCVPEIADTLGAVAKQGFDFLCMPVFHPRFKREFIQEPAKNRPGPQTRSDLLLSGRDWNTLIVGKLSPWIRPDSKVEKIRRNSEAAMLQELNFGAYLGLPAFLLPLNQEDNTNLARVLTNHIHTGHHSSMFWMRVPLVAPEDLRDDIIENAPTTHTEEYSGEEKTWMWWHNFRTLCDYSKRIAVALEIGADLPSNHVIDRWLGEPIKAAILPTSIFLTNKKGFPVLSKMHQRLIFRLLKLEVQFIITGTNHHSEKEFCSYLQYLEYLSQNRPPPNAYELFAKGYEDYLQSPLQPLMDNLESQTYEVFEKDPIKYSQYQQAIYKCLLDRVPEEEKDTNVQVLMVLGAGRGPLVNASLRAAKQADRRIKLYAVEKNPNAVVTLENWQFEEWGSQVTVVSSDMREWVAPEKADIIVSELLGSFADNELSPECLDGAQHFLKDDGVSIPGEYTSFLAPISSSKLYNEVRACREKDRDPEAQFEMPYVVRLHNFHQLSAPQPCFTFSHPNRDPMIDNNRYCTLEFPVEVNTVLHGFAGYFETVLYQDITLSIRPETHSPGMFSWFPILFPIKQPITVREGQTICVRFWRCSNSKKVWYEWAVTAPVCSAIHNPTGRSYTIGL
- Sequence (Q9BQA1 whole entry partner): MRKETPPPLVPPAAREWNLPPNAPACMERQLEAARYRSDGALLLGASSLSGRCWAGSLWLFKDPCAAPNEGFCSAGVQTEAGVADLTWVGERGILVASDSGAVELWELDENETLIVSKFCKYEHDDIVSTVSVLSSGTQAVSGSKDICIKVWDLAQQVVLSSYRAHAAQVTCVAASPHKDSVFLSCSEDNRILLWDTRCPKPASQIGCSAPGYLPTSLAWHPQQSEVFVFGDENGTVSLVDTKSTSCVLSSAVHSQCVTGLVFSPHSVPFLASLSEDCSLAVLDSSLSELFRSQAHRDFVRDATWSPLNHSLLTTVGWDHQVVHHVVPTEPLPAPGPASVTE
- assay comment: PRMT5 biochemical IC50 assay with no cofactor
- test settings: PRMT5, no cofactor; read-out: No Cofactor/rel IC50
pIC50: −log10 of the molar value.

Some compounds with recorded pIC50:
CC(=O)N1CCCC([C@@H]2CC[C@@H](C)CN2C(=O)C(=O)Nc2cnc(N)c(C)c2)C1 (mixture of isomers); 6.30 to 7.30
COc1ncc(NC(=O)C(=O)N2C[C@@H](C)CC[C@@H]2c2ccc(C)nc2)cc1C(N)=O (single isomer, unassigned); < 6.30

# ---- query compound ----
Reported pIC50 for C[C@H]1CC[C@H](c2ccc3c(c2)C(=O)NC3)N(C(=O)C(=O)Nc2cncc(C(N)=O)c2)C1 (single isomer, unassigned) was < 6.30

----------
- experimental target: PRMT5 (Homo sapiens, UniProt O14744)
- Construct: purchased Viva (custom protein)
- assay comment: PRMT5 biochemical IC50 assay with MTA as cofactor
- test settings: PRMT5, MTA as cofactor; read-out: MTA IC50
Below: a set of entries, each annotated with reported IC50.

Some compounds with recorded IC50:
CCc1cc(NC(=O)C(=O)N2C[C@@H](C)CC[C@@H]2c2ccc3sc([C@H]4CCN(C)C(=O)C4)nc3c2)cnc1N (single isomer, unassigned) [Compound 1136]; < 50 nM
Cc1cc(NC(=O)C(=O)N2[C@@H](C)CCC[C@H]2c2ccccc2)cnc1N (racemic) [Compound 112]; < 50 nM
Cc1ncc(NC(=O)C(=O)N2C[C@H](C)CC[C@H]2c2ccccc2)cc1C(N)=O (single isomer, unassigned) [Compound 196]; > 500 nM

Reported IC50 for C[C@H]1CC[C@H](C2CCCCC2)N(C(=O)C(=O)Nc2cncc(C(N)=O)c2)C1 (single isomer, unassigned) [Compound 117] was 50 to 500 nM

----------
- System: HAP1 MTAP-intact cell line
- assay comment: SDMA in-cell western assay, HAP1 MTAP-intact
- Assay type: cell-based
- test settings: Homo sapiens, HAP1, SDMA in-cell western, HAP1 MTAP-intact; read-out: MTAP HAP1 intact IC50
Examples of compounds with documented IC50 follow.

Below, 5 compounds whose answers are already recorded.
C[C@H]1CC[C@H](c2cccc(N(C)C)c2)N(C(=O)C(=O)Nc2cncc(C(N)=O)c2)C1 (single isomer, unassigned) [Compound 374]; > 1 µM
CCc1cc(NC(=O)C(=O)N2C[C@@H](C)CC[C@@H]2c2ccc3sc(C4CCN(C)C4)nc3c2)cnc1N (some centres unmarked) [Compound 1383]; < 0.1 µM
CCc1cc(NC(=O)C(=O)N2C[C@@H](C)C(F)(F)C[C@@H]2c2ccc(F)c(F)c2)cnc1N (single isomer, unassigned) [Compound 721]; > 1 µM
Cc1cc(NC(=O)C(=O)N2C[C@H](C)[C@@H](OC(C)C)C[C@H]2c2ccccc2)cnc1N (single isomer, unassigned) [Compound 1088]; 0.1 to 1 µM
CNC(=O)[C@@H]1CC[C@@H](c2ccccc2)N(C(=O)C(=O)Nc2cnc(N)c(C)c2)C1 (racemic) [Compound 249]; > 1 µM

Sample CCc1cc(NC(=O)C(=O)N2C[C@@H](C)CC[C@@H]2c2ccc(OCCN(C)C)cc2)cnc1N [Compound 1292] ; IC50 observed: 0.1 to 1 µM

Please fill in: IC50 reported for Cc1cc(NC(=O)C(=O)N2C[C@@H](C)CC[C@@H]2c2ccc(C(N)=O)s2)cnc1N (single isomer, unassigned) [Compound 733] = 0.1 to 1 µM
